- measured-target: T1, 4H591-bH
- T1 chain: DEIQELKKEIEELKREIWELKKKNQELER
- protocol-text: two-hybrid library CCNG1;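 further: natural log of median RNA to DNA barcode read ratio; higher means stronger binding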
measured-attribute: interaction score
Answers are plain numbers.

Some solved entries appear below for comparison.
binder: DKNQELKKEIEELERKIWELKKENQELKR [4H3628-bH]
interaction score: 0.0937
--
binder: DKNQELEKKNEELEREIWELEKKIQELKR [4H3462-bH]
interaction score: -0.285
--
binder: DKNQELEKENEELKRKIWELEKEIQELKR [4H3298-bH]
interaction score: -1.21

// next entry
Data request: Can you look up the measured interaction score of DENQELKKENEELERKIWELKKKIQELKR [4H1710-bH] for me?
Data returned: -1.94

Data provenance: paper PMC10397247
